Below: a set of entries, each annotated with reported pKi.
Biological target: rat MCH1 receptor (Rattus norvegicus)
Assay: HT-PS100 calcium mobilization functional assay
Type: cell-based
Parameters: expressed in transfected cells
Conditions: HEK 293 cells stably transfected with rat MCH1 receptor; 100 nM or less list; read-out: Ki in the HT-PS100 assay
pKi: −log10 of the molar value.
measure.name: pKi

compound: Cc1cccc([C@@H](c2nnnn2-c2c(C)cccc2C)N2CCN(C/C=C/c3ccccc3)CC2)c1 (racemic) [Compound 61]
measure.name: pKi
value.measured: ≥ 7.00
//
compound: Cc1cccc(C)c1-n1nnnc1[C@H](c1ccc(Oc2ccccc2)cc1)N1CCN(C/C=C/c2ccccc2)CC1 (racemic) [Compound 76]
measure.name: pKi
value.measured: ≥ 7.00
//
compound: Cc1cccc(C)c1-n1nnnc1[C@H](c1ccc(-c2ccccc2)cc1)N1CCN(C/C=C/c2ccccc2)CC1 (racemic) [Compound 64]
measure.name: pKi
value.measured: ≥ 7.00

###

Target: rat MCH 1 receptor (rMCH1R) (Rattus norvegicus, UniProt P97639)
Construct: expressed in transfected cells; host or cells: HEK 293 (membranes)
Sequence (P97639 whole entry): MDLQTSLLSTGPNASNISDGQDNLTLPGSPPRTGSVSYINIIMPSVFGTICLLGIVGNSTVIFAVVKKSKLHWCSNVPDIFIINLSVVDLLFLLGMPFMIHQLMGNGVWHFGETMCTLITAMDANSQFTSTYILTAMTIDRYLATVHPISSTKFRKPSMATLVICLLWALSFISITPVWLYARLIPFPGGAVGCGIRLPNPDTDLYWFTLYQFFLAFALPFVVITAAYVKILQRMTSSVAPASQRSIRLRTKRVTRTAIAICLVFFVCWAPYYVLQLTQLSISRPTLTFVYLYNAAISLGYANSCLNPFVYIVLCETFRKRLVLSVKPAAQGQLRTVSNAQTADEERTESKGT
Assay: 125I-MCH ligand binding assay, rMCH
Settings: HEK 293 membranes, 0.2 nM 125I native-MCH; 100 μM or less list; read-out: IC50 in the rMCH binding assay
measure.name: IC50

compound: COc1cc([C@@H](c2nnnn2-c2c(C)cccc2C)N2CCN(C/C=C/c3ccccc3)CC2)ccc1OCc1ccccc1 (racemic)
measure.name: IC50
value.measured: ≤ 100 µM
--
compound: COC(=O)C(Cc1c[nH]c2ccccc12)n1nnnc1[C@H](c1ccccc1)N1CCN(C/C=C/c2ccccc2)CC1 (stereo in doubt)
measure.name: IC50
value.measured: ≤ 100 µM
--
compound: COc1ccc([C@@H](c2nnnn2-c2c(C)cccc2C)N2CCN(C/C=C/c3ccccc3)CC2)cc1OC (racemic)
measure.name: IC50
value.measured: ≤ 100 µM

###

Target: rat MCH1 receptor (Rattus norvegicus, UniProt P97639)
Sequence (P97639 whole entry): as the sequence (P97639 whole entry) above
Assay: rMCH FLIPR calcium mobilization assay (CHOK1-Gqi cells)
Format: cell-based
Set-up: expressed in transfected cells; host or cells: CHOK1-Gqi
Conditions: Ki in the rMCH FLIPR assay, CHOK1-Gqi cells, rat MCH1 receptor; 100 μM or less list
measure.name: Ki

compound: Cc1cccc(C)c1-n1nnnc1[C@H](c1cccc(O)c1)N1CCN(C/C=C/c2ccccc2)CC1 (racemic)
value.measured: ≤ 100 µM

###

Molecular target: human MCH 1 receptor (hMCH1R) (Homo sapiens, UniProt Q99705)
Construct: expressed in transfected cells; host or cells: HEK 293 (membranes)
Sequence (Q99705 whole entry): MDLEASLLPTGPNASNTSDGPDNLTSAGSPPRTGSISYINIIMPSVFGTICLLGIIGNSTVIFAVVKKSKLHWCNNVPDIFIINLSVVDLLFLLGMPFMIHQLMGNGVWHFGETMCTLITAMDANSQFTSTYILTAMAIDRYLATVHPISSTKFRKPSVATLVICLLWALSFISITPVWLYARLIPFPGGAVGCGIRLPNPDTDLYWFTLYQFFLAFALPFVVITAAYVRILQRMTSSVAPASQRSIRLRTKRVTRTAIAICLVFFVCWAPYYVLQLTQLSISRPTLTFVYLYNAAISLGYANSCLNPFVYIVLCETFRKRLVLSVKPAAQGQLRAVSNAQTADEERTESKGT
Experiment: 125I-MCH ligand binding assay, hMCH
Conditions: HEK 293 membranes, 0.2 nM 125I native-MCH; 100 μM or less list; read-out: IC50 in the hMCH binding assay
Let's look at some compounds and their measured IC50.

compound: Cc1cccc(C)c1-n1nnnc1[C@H](c1cccc(Oc2ccccc2)c1)N1CCN(C/C=C/c2ccccc2)CC1 (racemic)
target.or.test.system: human MCH 1 receptor (hMCH1R) (Homo sapiens, UniProt Q99705)
IC50: ≤ 100 µM
//
compound: Clc1ccc(CCn2nnnc2[C@H](c2ccccc2)N2CCN(C/C=C/c3ccccc3)CC2)cc1 (racemic)
target.or.test.system: human MCH 1 receptor (hMCH1R) (Homo sapiens, UniProt Q99705)
IC50: ≤ 100 µM
//
compound: Cc1cccc(C)c1-n1nnnc1[C@H](c1cccc(Oc2ccc(Cl)c(Cl)c2)c1)N1CCN(C/C=C/c2ccccc2)CC1 (racemic)
target.or.test.system: human MCH 1 receptor (hMCH1R) (Homo sapiens, UniProt Q99705)
IC50: ≤ 100 µM
//
compound: Cc1cccc(C)c1-n1nnnc1[C@H](c1cccc(C(F)(F)F)c1)N1CCN(C/C=C/c2ccccc2)CC1 (stereo in doubt) [Compound 142]
target.or.test.system: human MCH 1 receptor (hMCH1R) (Homo sapiens, UniProt Q99705)
IC50: ≤ 100 µM
//
compound: Cc1ccc(Oc2cccc([C@@H](c3nnnn3-c3c(C)cccc3C)N3CCN(C/C=C/c4ccccc4)CC3)c2)cc1 (racemic)
target.or.test.system: human MCH 1 receptor (hMCH1R) (Homo sapiens, UniProt Q99705)
IC50: ≤ 100 µM
//
compound: CCOC(=O)Cn1nnnc1[C@H](c1ccccc1)N1CCN(C/C=C/c2ccccc2)CC1 (racemic)
target.or.test.system: human MCH 1 receptor (hMCH1R) (Homo sapiens, UniProt Q99705)
IC50: ≤ 100 µM
